Target: T1, Lsb4, P32793
T1 sequence (P32793 402-468, looked up): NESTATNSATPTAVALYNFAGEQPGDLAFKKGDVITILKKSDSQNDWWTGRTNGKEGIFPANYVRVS
Assay: SPOT array
Details: median of control spots 397
We label by threshold. Values of SPOT intensity strictly beneath 9 are true (1). Values of 9 and up are false (0).

# BINDER, GROUP_LABEL
measured = [
    ("GATNNAPTLPKRKNP", "false (0)"),
    ("GQYRRTIVIPRRFFT", "false (0)"),
    ("FHLNPKRSAVLYDRP", "true (1)"),
    ("NLPKRKPPKLQGPFS", "false (0)"),
    ("TTNRGPPPLPPRANV", "false (0)"),
    ("FPGKKSPRLPHRNKK", "false (0)"),
    ("TSIEIPKRSPLRFTS", "true (1)"),
    ("GRSRLFPHSPLGRSS", "true (1)"),
    ("RNNRPVPPPPPMRTT", "true (1)"),
    ("NNNKMRPHLPPLSSG", "false (0)"),
    ("DTFLPPPPPPPSNFE", "true (1)"),
    ("LLRRTIPKRPFYHVL", "true (1)"),
    ("TTAPALPSLPPPPLL", "true (1)"),
    ("KKEKKPPKIPKKVYT", "true (1)"),
]
